Entries annotated with measured IC50
MEASUREMENT TARGET: Tyrosine-protein kinase BTK (Homo sapiens)
Sequence (Q06187 whole entry): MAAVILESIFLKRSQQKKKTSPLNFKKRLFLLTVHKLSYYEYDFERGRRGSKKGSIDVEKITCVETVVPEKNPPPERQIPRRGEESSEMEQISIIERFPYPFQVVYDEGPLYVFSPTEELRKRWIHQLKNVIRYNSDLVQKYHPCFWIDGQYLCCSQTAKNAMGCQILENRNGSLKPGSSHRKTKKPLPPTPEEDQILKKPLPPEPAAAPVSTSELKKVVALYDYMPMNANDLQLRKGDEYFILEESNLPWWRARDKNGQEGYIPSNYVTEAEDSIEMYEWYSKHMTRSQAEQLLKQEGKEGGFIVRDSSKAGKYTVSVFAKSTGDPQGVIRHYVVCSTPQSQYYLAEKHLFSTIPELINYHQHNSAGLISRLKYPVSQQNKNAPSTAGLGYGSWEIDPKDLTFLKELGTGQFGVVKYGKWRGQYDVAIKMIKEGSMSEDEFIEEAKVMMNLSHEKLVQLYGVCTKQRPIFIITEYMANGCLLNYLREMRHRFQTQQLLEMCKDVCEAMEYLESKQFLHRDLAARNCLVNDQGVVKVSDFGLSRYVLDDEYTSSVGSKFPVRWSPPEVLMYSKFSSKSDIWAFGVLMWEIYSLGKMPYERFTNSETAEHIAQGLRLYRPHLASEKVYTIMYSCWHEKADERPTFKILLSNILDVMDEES

Solved entries (count: 3):
COMPOUND	MEASUREMENT TARGET	IC50
Nc1ncnc2c1c(-c1ccc(Oc3ccccc3)cc1)nn2[C@@H]1CCCN(C(=O)/C=C/C(=O)NCC#CCN2CCN(CC#Cc3ccc4c(c3)CN(C3CCC(=O)NC3=O)C4=O)CC2)C1 (stereo not given in full)	Tyrosine-protein kinase BTK (Homo sapiens)	9 nM
Nc1ncnc2c1c(-c1ccc(Oc3ccccc3)cc1)nn2[C@@H]1CCCN(C(=O)[C@H]2CCCC[C@H]2C(=O)NCC#CCN2CCN(CC#Cc3ccc4c(c3)CN(C3CCC(=O)NC3=O)C4=O)CC2)C1 (stereo not given in full)	Tyrosine-protein kinase BTK (Homo sapiens)	9 nM
Nc1ncnc2c1c(-c1ccc(Oc3ccccc3)cc1)nn2[C@@H]1CCCN(C(=O)[C@H]2CC[C@H](C(=O)N3CCN(CC#Cc4ccc5c(c4)CN(C4CCC(=O)NC4=O)C5=O)CC3)CC2)C1 (stereo not given in full)	Tyrosine-protein kinase BTK (Homo sapiens)	9 nM

[in] Find the measured IC50: item Nc1ncnc2c1c(-c1ccc(Oc3ccccc3)cc1)nn2[C@@H]1CCCN(C(=O)CCC(=O)N2CCN(CC#Cc3ccc4c(c3)CN(C3CCC(=O)NC3=O)C4=O)CC2)C1 (stereo not given in full) , target or system Tyrosine-protein kinase BTK (Homo sapiens).
[out] 6.3 nM

[in] Item: Nc1ncnc2c1c(-c1ccc(Oc3ccccc3)cc1)nn2[C@@H]1CCCN(C(=O)[C@H]2CC[C@H](C(=O)NCC#CCN3CCN(CC#Cc4ccc5c(c4)CN(C4CCC(=O)NC4=O)C5=O)CC3)CC2)C1 (stereo not given in full)
[out] 9 nM

* * *

PROTOCOL SUMMARY: Cmax in ICR mouse at 100 mg/kg, po measured upto 48 hrs by LC/MS analysis
Format: ADME, organism-based
Parameters: dose 100 mg/kg, time < 48 hrs, route po
TEST SETTINGS: in vivo
Entries annotated with measured Cmax
A bare number is not enough; add the unit after it.

COMPOUND	Cmax
Nc1ncnc2c1c(-c1ccc(Oc3ccccc3)cc1)nn2[C@@H]1CCCN(C(=O)[C@H]2CCCC[C@H]2C(=O)NCC#CCN2CCN(CC#Cc3ccc4c(c3)CN(C3CCC(=O)NC3=O)C4=O)CC2)C1 (some centres not stated)	52 ng/mL

Kindly consider the entry below.
[in] Would you mind telling me what Cmax value was observed for Nc1ncnc2c1c(-c1ccc(Oc3ccccc3)cc1)nn2C1CCN(C2CCN(CC#Cc3ccc4c(c3)CN(C3CCC(=O)NC3=O)C4=O)CC2)CC1 (configuration not stated) ?
[out] 3090 ng/mL

* * *

PROTOCOL SUMMARY: AUC (0 to t) in Sprague-Dawley rat at 5 to 10 mg/kg, po administered as cassette dose measured upto 24 hrs by LC-MS analysis
Format: ADME, organism-based
Design: time < 24 hrs, route po
TEST SETTINGS: in vivo, dose 5-10 mg/kg
PARAMETER MEASURED: log10 of AUC(0-t) at 24 h (log10 of the value in µg·h/mL)
Note: values are log10 of AUC(0-t) at 24 h expressed in µg·h/mL.

Solved entries (count: 3):
COMPOUND	VALUE OBSERVED
Nc1ncnc2c1c(-c1ccc(Oc3ccccc3)cc1)nn2[C@@H]1CCCN(C(=O)/C=C/C(=O)NCC#CCN2CCN(CC#Cc3ccc4c(c3)CN(C3CCC(=O)NC3=O)C4=O)CC2)C1 (stereo not given in full)	-1.70
Nc1ncnc2c1c(-c1ccc(Oc3ccccc3)cc1)nn2[C@@H]1CCCN(C(=O)[C@H]2CC[C@H](C(=O)NCC#CCN3CCN(CC#Cc4ccc5c(c4)CN(C4CCC(=O)NC4=O)C5=O)CC3)CC2)C1 (stereo not given in full)	-0.95
O=C1CCC(N2Cc3c(OC4CN(CC#CCN5CCN(c6ccc(C(F)(F)F)cc6)CC5)C4)cccc3C2=O)C(=O)N1 (stereo not given)	-1.31

[in] Would you mind telling me what log10 of AUC(0-t) at 24 h value was observed for Nc1ncnc2c1c(-c1ccc(Oc3ccccc3)cc1)nn2[C@@H]1CCCN(C(=O)C2(C(=O)N3CCN(CC#Cc4ccc5c(c4)CN(C4CCC(=O)NC4=O)C5=O)CC3)CC2)C1 (stereo not given in full) ?
[out] 0.40

[in] Item: O=C1CCC(N2Cc3cc(C#CCN4CCN(CC#CCOc5ccc(C(F)(F)F)cc5)CC4)ccc3C2=O)C(=O)N1 (stereo not given)
[out] 1.18

* * *

PROTOCOL SUMMARY: Half life in Sprague-Dawley rat at 5 to 10 mg/kg, po administered as cassette dose measured upto 24 hrs by LC-MS analysis
Type: ADME, organism-based
TEST SETTINGS: in vivo, dose 5-10 mg/kg
param class (str): category from half-life; see ranges group A (below 2 h), group B (2 h to below 9 h), group C (9 h or more)

Worked set:
MOLECULE	QUALITATIVE LABEL
Nc1ncnc2c1c(-c1ccc(Oc3ccccc3)cc1)nn2[C@@H]1CCCN(C(=O)[C@H]2CC[C@H](C(=O)N3CCN(CC#Cc4ccc5c(c4)CN(C4CCC(=O)NC4=O)C5=O)CC3)CC2)C1 (stereo not given in full)	group A
O=C1CCC(N2C(=O)c3ccc(N4CCN(CC#CCN5CCN(c6ccc(C(F)(F)F)cc6)CC5)CC4)cc3C2=O)C(=O)N1 (stereo not given)	group C

[in] Band for O=C1CCC(N2Cc3cc(CCCN4CCN(CC#CCOc5ccc(C(F)(F)F)cc5)CC4)ccc3C2=O)C(=O)N1 (stereo not given) ?
[out] group B

[in] Item: O=C1CCC(N2C(=O)c3cccc(N4CCN(CC#CCN5CCN(c6ccc(C(F)(F)F)cc6)CC5)CC4)c3C2=O)C(=O)N1 (stereo not given)
[out] group C

[in] Item: O=C1CCC(N2C(=O)c3ccc(N4CCN(C5CN(CCCCOc6ccc(C(F)(F)F)cc6)C5)CC4)cc3C2=O)C(=O)N1 (stereo not given)
[out] group B

[in] Item: O=C1CCC(N2C(=O)c3ccc(N4CCN(C5CN(CC#CCOc6ccc(C(F)(F)F)cc6)C5)CC4)cc3C2=O)C(=O)N1 (stereo not given)
[out] group B

[in] Item: Nc1ncnc2c1c(-c1ccc(Oc3ccccc3)cc1)nn2[C@@H]1CCCN(C(=O)C2(C(=O)N3CCN(CC#Cc4ccc5c(c4)CN(C4CCC(=O)NC4=O)C5=O)CC3)CC2)C1 (stereo not given in full)
[out] group B

[in] Item: O=C1CCC(N2C(=O)c3cccc(NCCN4CCN(CC#CCOc5ccc(C(F)(F)F)cc5)CC4)c3C2=O)C(=O)N1 (stereo not given)
[out] group C

* * *

PROTOCOL SUMMARY: Tmax in Sprague-Dawley rat at 5 to 10 mg/kg, po administered as cassette dose measured upto 24 hrs by LC-MS analysis
Assay type: ADME, organism-based
TEST SETTINGS: in vivo, dose 5-10 mg/kg
PARAMETER MEASURED: Tmax
A bare number is not enough; add the unit after it.

Solved entries (count: 2):
COMPOUND	Tmax
Nc1ncnc2c1c(-c1ccc(Oc3ccccc3)cc1)nn2[C@@H]1CCCN(C(=O)[C@H]2CC[C@H](C(=O)NCC#CCN3CCN(CC#Cc4ccc5c(c4)CN(C4CCC(=O)NC4=O)C5=O)CC3)CC2)C1 (some centres undefined)	30 min
O=C1CCC(N2Cc3c(OC4CN(CC#CCN5CCN(c6ccc(C(F)(F)F)cc6)CC5)C4)cccc3C2=O)C(=O)N1 (centres undefined)	18 min

[in] Would you mind telling me what Tmax value was observed for Nc1ncnc2c1c(-c1ccc(Oc3ccccc3)cc1)nn2[C@@H]1CCCN(C(=O)C2(C(=O)NCC#CCN3CCN(CC#Cc4ccc5c(c4)CN(C4CCC(=O)NC4=O)C5=O)CC3)CC2)C1 (some centres undefined) ?
[out] 18 min

[in] Item: O=C1CCC(N2C(=O)c3cccc(N4CCN(CC5CCN(CC#CCOc6ccc(C(F)(F)F)cc6)CC5)CC4)c3C2=O)C(=O)N1 (centres undefined)
[out] 660 min

* * *

PROTOCOL SUMMARY: Cmax in Sprague-Dawley rat at 5 to 10 mg/kg, po administered as cassette dose measured upto 24 hrs by LC-MS analysis
Assay type: ADME, organism-based
Design: time < 24 hrs, route po
TEST SETTINGS: in vivo, dose 5-10 mg/kg
PARAMETER MEASURED: log10 of Cmax (log10 of the value in ng/mL)
Note: values are log10 of Cmax expressed in ng/mL.

Solved entries (count: 2):
MOLECULE	log10 of Cmax
Nc1ncnc2c1c(-c1ccc(Oc3ccccc3)cc1)nn2[C@@H]1CCCN(C(=O)[C@H]2CC[C@H](C(=O)N3CCN(CC#Cc4ccc5c(c4)CN(C4CCC(=O)NC4=O)C5=O)CC3)CC2)C1 (stereo partly specified)	1.20
O=C1CCC(N2C(=O)c3ccc(N4CCN(CC#CCN5CCN(c6ccc(C(F)(F)F)cc6)CC5)CC4)cc3C2=O)C(=O)N1 (stereo unspecified)	2.30

[in] Would you mind telling me what log10 of Cmax value was observed for O=C1CCC(N2C(=O)c3cccc(N4CCN(C5CCN(CC#CCOc6ccc(C(F)(F)F)cc6)CC5)CC4)c3C2=O)C(=O)N1 (stereo unspecified) ?
[out] 2.43

[in] Item: Nc1ncnc2c1c(-c1ccc(Oc3ccccc3)cc1)nn2[C@@H]1CCCN(C(=O)[C@H]2CC[C@H](C(=O)NCC#CCN3CCN(CC#Cc4ccc5c(c4)CN(C4CCC(=O)NC4=O)C5=O)CC3)CC2)C1 (stereo partly specified)
[out] 1.84

[in] Item: O=C1CCC(N2C(=O)c3cccc(N4CCN(CC5CCN(CCCCOc6ccc(C(F)(F)F)cc6)CC5)CC4)c3C2=O)C(=O)N1 (stereo unspecified)
[out] 1.83

[in] Item: O=C1CCC(N2C(=O)c3cccc(N4CCN(CC5CCN(CC#CCOc6ccc(C(F)(F)F)cc6)CC5)CC4)c3C2=O)C(=O)N1 (stereo unspecified)
[out] 2.62
